For each of the compounds below, state its LD50.
experiment: Acute toxicity (LD50) in mice; details: mouse, in vivo, ip, read-out: LD50 (DL50)

sample_smiles=Nc1nnc(SCc2ccccc2)s1 measured="> 600 mg/kg"
sample_smiles=CC(=O)Nc1nnc(SCc2ccccc2)s1 measured="> 1000 mg/kg"

Please turn your attention to the following entry.
Q) Using the record for CSc1nnc(N)s1 , report its LD50.
A) > 1000 mg/kg

###

system: mice; assay: Dispair test (Porsolt) in mice; assay type: in vivo, Swiss strain male mice (CD-1 Charles River); details: 5 mg/kg i.p., 1 hour before test
experimental readout: immobility duration
One number for each entry.

Below, 3 compounds whose answers are already recorded.
sample_smiles=Nc1nnc(SCc2ccccc2)s1 experimental_readout="immobility duration" measured=171
sample_smiles=CC(=O)Nc1nnc(SC(C)C)s1 experimental_readout="immobility duration" measured=196
sample_smiles=CC(=O)N(C)c1nnc(SC(C)C)s1 experimental_readout="immobility duration" measured=176

Below: the item to evaluate.
Q) Can you look up the measured immobility duration of COc1ccc(CSc2nnc(N)s2)cc1 for me?
A) 189

FYI, the data here is from patent US5401853A.
